- Tested on: galK 1 site
- procedure text: red/white colony screen of editing efficiency at the galK 1 site (CREATE recombineering)
- Assay type: cell-based, E. coli MG1655
- settings: induced for 3 hours with 1 mM theophylline
recorded endpoint: Editing Efficiency 1 mM Theo

Ask: // returns reported Editing Efficiency 1 mM Theo for input GU18: agRNA cassette GATTGGCCTACGGT, SEQ ID NO: 50 (expressed or natural sequence)
Reply: 1%

Ask: // returns reported Editing Efficiency 1 mM Theo for input GC18: agRNA cassette GATTGGCCGCAACC, SEQ ID NO: 68 (expressed or natural sequence)
Reply: 48%

Ask: // returns reported Editing Efficiency 1 mM Theo for input AU16: agRNA cassette AACCGGCCCCGAGT, SEQ ID NO: 29 (expressed or natural sequence)
Reply: 6%

Ask: // returns reported Editing Efficiency 1 mM Theo for input GU1: agRNA cassette GACGGGCCTAATAT, SEQ ID NO: 34 (expressed or natural sequence)
Reply: 0%

Ask: // returns reported Editing Efficiency 1 mM Theo for input GC11: agRNA cassette GCGTGGCCCTTCCC, SEQ ID NO: 62 (chemistry not given here)
Reply: 3%

Ask: // returns reported Editing Efficiency 1 mM Theo for input A26: agRNA cassette GGGGGGCCACGCGC, SEQ ID NO: 13 (expressed or natural sequence)
Reply: 89%

Ask: // returns reported Editing Efficiency 1 mM Theo for input RG53: agRNA cassette AGTGAGCTAAAAAT, SEQ ID NO: 3 (expressed or natural sequence)
Reply: 22%

Ask: // returns reported Editing Efficiency 1 mM Theo for input GC10: agRNA cassette GAGCGGCCACAACC, SEQ ID NO: 61 (expressed or natural sequence)
Reply: 0%

Ask: // returns reported Editing Efficiency 1 mM Theo for input GU9: agRNA cassette GTTCGGCCCCGACT, SEQ ID NO: 41 (expressed or natural sequence)
Reply: 0%

Ask: // returns reported Editing Efficiency 1 mM Theo for input GU5: agRNA cassette GGTTGGCCTAATAT, SEQ ID NO: 38 (expressed or natural sequence)
Reply: 2%

Ask: // returns reported Editing Efficiency 1 mM Theo for input GU6: agRNA cassette GGACGGCCAAGCAT, SEQ ID NO: 39 (expressed or natural sequence)
Reply: 1%

Ask: // returns reported Editing Efficiency 1 mM Theo for input AU19: agRNA cassette AATAGGCCCGCAGT, SEQ ID NO: 32 (expressed or natural sequence)
Reply: 10%

Ask: // returns reported Editing Efficiency 1 mM Theo for input GC4: agRNA cassette GGTCGGCCAGTAGC, SEQ ID NO: 55 (expressed or natural sequence)
Reply: 1%

Ask: // returns reported Editing Efficiency 1 mM Theo for input GC17: agRNA cassette GACCGGCCCCCCGC, SEQ ID NO: 67 (expressed or natural sequence)
Reply: 2%

Ask: // returns reported Editing Efficiency 1 mM Theo for input GC13: agRNA cassette GGAAGGCCTTATAC, SEQ ID NO: 64 (expressed or natural sequence)
Reply: 64%
